// data source = patent US10758534B2

- TARGET_DESC: F508del (Homo sapiens, UniProt P13569, DEL508-508)
- Construct: expressed in transfected cells
- Sequence (P13569 with tags, fused parts or gaps DEL508-508): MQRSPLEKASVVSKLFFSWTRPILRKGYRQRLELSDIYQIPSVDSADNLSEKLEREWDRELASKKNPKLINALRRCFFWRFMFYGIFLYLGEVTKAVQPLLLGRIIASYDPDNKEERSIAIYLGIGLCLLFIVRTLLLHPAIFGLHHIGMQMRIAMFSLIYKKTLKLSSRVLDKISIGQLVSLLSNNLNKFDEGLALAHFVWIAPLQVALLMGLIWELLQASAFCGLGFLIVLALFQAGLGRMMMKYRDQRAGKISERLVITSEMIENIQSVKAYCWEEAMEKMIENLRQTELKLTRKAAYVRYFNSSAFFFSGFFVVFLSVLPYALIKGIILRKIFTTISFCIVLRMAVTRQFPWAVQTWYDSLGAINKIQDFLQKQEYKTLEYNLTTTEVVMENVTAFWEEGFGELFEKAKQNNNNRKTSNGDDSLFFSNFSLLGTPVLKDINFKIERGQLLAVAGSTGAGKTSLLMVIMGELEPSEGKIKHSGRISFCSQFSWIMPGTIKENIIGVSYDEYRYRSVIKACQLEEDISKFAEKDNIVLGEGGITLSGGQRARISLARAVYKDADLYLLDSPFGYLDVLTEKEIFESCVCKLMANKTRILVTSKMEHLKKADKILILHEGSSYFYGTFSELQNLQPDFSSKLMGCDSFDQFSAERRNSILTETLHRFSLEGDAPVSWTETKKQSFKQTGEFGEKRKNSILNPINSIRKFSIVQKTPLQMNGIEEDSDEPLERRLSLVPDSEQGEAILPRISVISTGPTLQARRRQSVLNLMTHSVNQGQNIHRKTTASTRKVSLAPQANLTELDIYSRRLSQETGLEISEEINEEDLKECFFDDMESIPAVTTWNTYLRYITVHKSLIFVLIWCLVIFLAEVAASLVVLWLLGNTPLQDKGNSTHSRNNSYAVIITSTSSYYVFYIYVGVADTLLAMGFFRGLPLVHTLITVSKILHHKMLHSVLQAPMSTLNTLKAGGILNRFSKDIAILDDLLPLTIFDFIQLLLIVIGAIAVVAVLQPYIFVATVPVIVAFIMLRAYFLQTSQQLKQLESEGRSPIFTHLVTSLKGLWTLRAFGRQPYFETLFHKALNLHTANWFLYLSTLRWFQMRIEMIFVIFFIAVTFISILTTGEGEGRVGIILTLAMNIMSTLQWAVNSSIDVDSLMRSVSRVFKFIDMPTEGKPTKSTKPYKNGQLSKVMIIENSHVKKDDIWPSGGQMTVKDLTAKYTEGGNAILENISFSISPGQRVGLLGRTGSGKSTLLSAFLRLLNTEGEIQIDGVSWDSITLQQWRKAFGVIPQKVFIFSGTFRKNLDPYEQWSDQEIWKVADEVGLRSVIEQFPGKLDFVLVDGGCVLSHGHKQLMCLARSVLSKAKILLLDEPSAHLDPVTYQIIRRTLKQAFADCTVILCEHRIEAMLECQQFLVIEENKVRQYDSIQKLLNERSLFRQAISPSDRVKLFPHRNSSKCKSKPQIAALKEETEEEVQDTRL
- ASSAY_COMMENT: Protocol 2: FRET membrane potential optical assay (VIPR), identification of correction compounds
- Assay type: cell-based
- CONDITION_DETAILS: F508del CFTR modulator activity; compounds of Table 1; read-out: EC30

>  <COMPOUND>
CCC(CC)CNc1cccc(S(=O)(=O)NC(=O)c2cccnc2N2CC(C)CC2(C)C)n1 (stereo not shown)

>  <EC30>
< 3 µM

$$$$
>  <COMPOUND>
CC(C)COc1cc(F)cc(-c2ccc(C(=O)NS(=O)(=O)N3CC(N)CC(F)(F)C3)c(N3C[C@@H](C)CC3(C)C)n2)c1 (stereo partly shown)

>  <EC30>
< 3 µM

$$$$
>  <COMPOUND>
CC1CN(c2ncccc2C(=O)NS(=O)(=O)c2cccc(OCC3COc4ccccc4O3)n2)C(C)(C)C1 (stereo not shown)

>  <EC30>
< 3 µM

$$$$
>  <COMPOUND>
CNc1cccc(S(=O)(=O)NC(=O)c2cccnc2N2CC(C)CC2(C)C)n1 (stereo not shown)

>  <EC30>
3 to 10 µM

$$$$
>  <COMPOUND>
Cc1ccc(-c2ccc(C(=O)NS(=O)(=O)c3cccnc3N)c(N3C[C@@H](C)CC3(C)C)n2)c2ccccc12

>  <EC30>
< 3 µM

$$$$
>  <COMPOUND>
CCOc1cc(C)cc(-c2ccc(C(=O)NS(=O)(=O)c3cccc(N)n3)c(Oc3c(C)cc(C)cc3C)n2)n1

>  <EC30>
< 3 µM

$$$$
>  <COMPOUND>
C[C@@H]1CN(c2nc(-c3cc(O)cc(F)c3)ccc2C(=O)NS(=O)(=O)c2cccnc2N)C(C)(C)C1

>  <EC30>
3 to 10 µM

$$$$
>  <COMPOUND>
CC(=O)c1cccc(Oc2cccc(S(=O)(=O)NC(=O)c3cccnc3N3CC(C)CC3(C)C)n2)c1 (stereo not shown)

>  <EC30>
< 3 µM

$$$$
>  <COMPOUND>
C[C@@H]1CN(c2nc(-c3ccccc3OC(F)(F)F)ccc2C(=O)NS(=O)(=O)c2cccnc2N)C(C)(C)C1

>  <EC30>
< 3 µM

$$$$
>  <COMPOUND>
COc1cccc(Oc2cccc(S(=O)(=O)NC(=O)c3cccnc3N3CC(C)CC3(C)C)n2)c1OC (stereo not shown)

>  <EC30>
< 3 µM

$$$$
>  <COMPOUND>
COc1cc(C)c(-c2ccc(C(=O)NS(=O)(=O)c3ccc[nH]c3=O)c(N3C[C@@H](C)CC3(C)C)n2)c(C)c1

>  <EC30>
< 3 µM

$$$$
>  <COMPOUND>
COc1cc(-c2ccc(C(=O)NS(=O)(=O)c3cccnc3N)c(N3C[C@@H](C)CC3(C)C)n2)ccn1

>  <EC30>
< 3 µM

$$$$
>  <COMPOUND>
CC1CN(c2ncccc2C(=O)NS(=O)(=O)c2cccc(Oc3cccc(Cl)c3Cl)n2)C(C)(C)C1 (stereo not shown)

>  <EC30>
< 3 µM

$$$$

----------
- TARGET_DESC: F508del (Homo sapiens, UniProt P13569, DEL508-508)
- Construct: expressed in transfected cells
- ASSAY_COMMENT: Protocol 2: FRET membrane potential optical assay (VIPR), identification of correction compounds
- Assay type: cell-based
- CONDITION_DETAILS: F508del CFTR modulator activity; compounds of Table 1; read-out: EC30
Measured EC30 of individual entries
ENDPOINT: EC30

>  <COMPOUND>
Cc1cc(-c2ccc(C(=O)NS(=O)(=O)c3ccc[nH]c3=O)c(N3C[C@@H](C)CC3(C)C)n2)cc(C)c1O

>  <ENDPOINT>
EC30

>  <MEASURED>
3 to 10 µM

$$$$
>  <COMPOUND>
COc1ccc(-c2ccc(C(=O)NS(=O)(=O)c3cccnc3N)c(N3C[C@@H](C)CC3(C)C)n2)c(F)c1F

>  <ENDPOINT>
EC30

>  <MEASURED>
< 3 µM

$$$$
>  <COMPOUND>
C[C@@H]1CN(c2nc(-c3cccc(F)c3O)ccc2C(=O)NS(=O)(=O)c2cccc(N)n2)C(C)(C)C1

>  <ENDPOINT>
EC30

>  <MEASURED>
< 3 µM

$$$$
>  <COMPOUND>
CC1CN(c2ncccc2C(=O)NS(=O)(=O)c2cccc(OCCC(C)(C)C)n2)C(C)(C)C1 (centres unmarked)

>  <ENDPOINT>
EC30

>  <MEASURED>
< 3 µM

$$$$
>  <COMPOUND>
Cc1cccc(Nc2cccc(S(=O)(=O)NC(=O)c3cccnc3N3CC(C)CC3(C)C)n2)c1 (centres unmarked)

>  <ENDPOINT>
EC30

>  <MEASURED>
< 3 µM

$$$$
